Assay: Antagonist activity at CCR2 in human peripheral blood mononuclear cells assessed as reduction in MCP1-induced chemotaxis measured after 30 mins by calcein-AM dye based fluorescence assay
measure: pIC50
For clarity, pIC50 is expressed as the negative log10 of concentration in mol/L.

[in] Using the record for `CN[C@@H]1CC[C@H](N2CC[C@H](Nc3ncnc4ccc(C(F)(F)F)cc34)C2=O)[C@H](NC(C)=O)C1` , report its pIC50.
[out] 8.77
